# system.name: T1, Human TNFa N-his trimers (His-tagged TNF, produced at ESBATech) (human, UniProt P01375 77-233)
# T1 construct: Captured as trimers on a Ni-NTA sensor chip by the N-terminal His tags in the Biacore assay of the general methods; also called human TNFα; human TNF alpha; not shown: N-terminal His tag
# assay.info: SPR (BIAcore T100), His-tagged human TNF captured on NTA chip, scFv as analyte
value.kind: koff (s⁻¹)
// units = s⁻¹; emit number, no label

Can you share its koff? I mean this binder: EP6_min (scFv, scFv NH2-VL-(GGGGS)4-VH-COOH; also called 673) scFv: EIVMTQSPSTLSASVGDRVIITCQASESIYSGLAWYQQKPGKAPKLLIYQASTLASGVPSRFSGSGSGAEFTLTISSLQPDDFATYYCQQGFGTSNVENPFGQGTKLTVLGGGGGSGGGGSGGGGSGGGGSEVQLVESGGGLVQPGGSLRLSCAASGFSLSRYGVSWVRQAPGKGLEWVSTIGEAGRAYYANWARSRFTISRDNSKNTLYLQMNSLRAEDTAVYYCAKGEVFNNGWGAFNIWGQGTLVTVSS
0.00494

Can you share its koff? I mean this binder: EP42_min (scFv, scFv NH2-VL-(GGGGS)4-VH-COOH; also called 1076) scFv: EIVMTQSPSTLSASVGDRVIITCQSTESVYKNNYLAWYQQKPGKAPKLLIYDASTLASGVPSRFSGSGSGAEFTLTISSLQPDDFATYYCAGYYRSGFGTANGSFGQGTKLTVLGGGGGSGGGGSGGGGSGGGGSEVQLVESGGGLVQPGGSLRLSCAASGFTFRNDAISWVRQAPGKGLEWVSYISDWGIKYYASWVKGRFTISRDNSKNTLYLQMNSLRAEDTAVYYCAKGAPGAGDNGIWGQGTLVTVSS
0.00835

Can you share its koff? I mean this binder: EP1_max (scFv, scFv NH2-VL-(GGGGS)4-VH-COOH; also called 1072) scFv: EIVMTQSPSTLSASVGDRVIITCQSTESVYKNNYLAWYQQKPGKAPKLLIYDASTLASGVPSRFSGSGSGTEFTLTISSLQPDDFATYYCAGYYRSGSGTANGSFGQGTKLTVLGGGGGSGGGGSGGGGSGGGGSEVQLVESGGGSVQPGGSLRLSCTVSGIDLSNDAISWVRQAPGKGLEWVAYISDWSIRYYANWAQGRFTISKDTSKNTVYLQMNSLRAEDTATYYCARGAPGAGDNGIWGQGTTVTVSS
0.00063
